Below is a list of entries, each paired with its recorded Kd value.
tgt: RSV prefusion F (preF), DS-Cav1 (Respiratory Syncytial Virus, UniProt P03420 26-513)
assay info: BLI, IgG on anti-human IgG sensor, 100 nM antigen, 1:1 fit
measured quantity: Kd (nM)

>  <binder>
ADI-41533 (antibody, V domains shown) VH: QVQLVESGGGVVQPGRSLRLSCAASGFTFSSYAMHWVRQAPGKGLEWLAVISFDGSSEFYGDSVRGRFTISRDNSKNTLYLRVNSLRAEDTALYYCARRSLKYSMYNNDAFDVWGQGTTVTVSS VL: QPVLTQPPSVSVSPGQTASITCSGDKLGNKFTFWYQQKSGQSPVLVIYQESQRPSGIPERFSGSNSGNTATLTIRGAQAMDEADYYCQAWDSSTAFFGGGTKLTVL

>  <result value>
1.47

$$$$
>  <binder>
ADI-41457 (antibody, V domains shown, also called Ab 741; Antibody Number 741) VH: EVQLVESGGGLVRPGGSLRVSCAASGFTFIRYDMHWVRQAPGKGLEWVSGIGTAGDTYYAASVQGRFTISRENAKNSLYLQMSNLRPGDTAVYYCAGSMAATGIDQWGQGTLVTVSS VL: EIVMTQSPLTLPVTPGEPASISCRSSQSLLHSNGFTYLDWFLQKPGQSPQLLIFLGSNRASGVPDRFSGSGSGTDFTLKISRVEAEDVGIYYCMQALQTPYTFGQGTKVEIK

>  <result value>
3.33

$$$$
>  <binder>
ADI-41516 (antibody, V domains shown) VH: EVQLLESGPRLVKPSETLSLTCIVSGGFISYDYWSWIRQPAGKGLEWIGRIYAGGIPKYNPSLKSRVTMSLDMSNNQFSLRLKSVTAADSAVYYCARAEPCSGDCFLGENPFDSWGQGTLVTVSS VL: QSVLTQPPSASGTPGQRVTISCSGSSSSIGSNYVYWYQQLPGTAPKLLIHKDNERPSGVPDRFSGSKSGTSASLAISGLRSEDEGDYSCAAWDDSLSGWVFGGGTKLTVL

>  <result value>
0.414

$$$$
>  <binder>
ADI-41472 (antibody, V domains shown) VH: QVQLVQSGAEVKKPGSSVKVSCKASGGTFSSYAISWVRQAPGQGLEWMGRIIPVLDITNYAQKFQGRVTIMADKSTSTAYMELSSLRSEDTAIYYCARETSNFYFYYNAMDVWGQGTTVTVSS VL: QPVLTQPPSASGSPGQSVTISCTGTSSDVGGDNYVSWYQQHPGKAPKLLIYEVSKRPSGVPDRFSGSRSGHTASLTVSGLQAEDEADYYCSSYAGRNNLGVFGGGTKLTVL

>  <result value>
3.05

$$$$
>  <binder>
ADI-41463 (antibody, V domains shown, also called Ab 747; Antibody Number 747) VH: QVQLVQSGAEVKKPGASVKVSCTASGYSFTDYDISWVRQAPGQGLEWMGWISAYNGNTNYAQKFQDRVTMNTDTSTNTAYMELRGLRSDDTAVYYCARNCYYGSGTCYIEDYYFDYWGQGTLVTVSS VL: DIQMTQSPSSLSASVGDRVTITCRASQDIKNDLGWYQQKPGKPPKRLIYGASRSQSGVPSRFSGSGSGTDFTLTIYSLQPEDFATYYCLQHSDYPFTFGQGTRLEIK

>  <result value>
2.68

$$$$
>  <binder>
ADI-41495 (antibody, V domains shown) VH: QVQLVQSGGGLVEPGGSLRLSCAASGFTFSNTWMNWVRQAPGKGLTWVGRIKRKTDFGTSDYAAPVKGRFTISRDDSKNMVFLQMNSLKIEDTGVYYCTTHPRPYLDTTAVVYWGQGTLVTVSS VL: QPVLTQPHSVSESPGKTVTISCIGSSGSITSNYVQWFQQRPGSAPTTVIYEDDQRPSGVPDRFSGSIDSSSNSASLTISGLKTEDEADYYCQSYHHTNPWVFGGGTKLTVL

>  <result value>
77.2

$$$$
>  <binder>
ADI-41526 (antibody, V domains shown) VH: QVQLVQSGAEVKKPGASVKVSCEASGYTFTDYYMHWVRQAPGQGLEWMGWINPNSGVTKIAQNFQGRVTMTRDTSITTAYMDLSRLRSDDTAVYYCARVVDGDYDNWFDFWGQGTLVTVSS VL: SYVLTQPPSASGTPGQRVTISCSGSTSNIGTNTVNWYQQPPGMAPKLLIYANNQRPSGVPDRFSGSKSGTSASLAISGLQSEDEADYHCAVWDDSLPGWVFGGGTKLTVL

>  <result value>
0.301

$$$$
>  <binder>
ADI-41485 (antibody, V domains shown) VH: EVQLLESGPGLVRPSETLSLTCTVSGGSLDSGPHYWNWIRQPPGKGLEWIGYIYYSVSTNYNPSLKSRVTISMDTSKNQFSLNLTSVTAADTAVYYCASFQLIYGPQIWGQGKKVTVSS VL: DIVLTQSPSSVSASVGDRVTITCRASQAISSWLIWSQHKPGKAPKVLIYAASSLQSGVPSRFSGSGSGTDFTLTISSLQPEDFATYYCQQANNFPLTFGGGTKVEIK

>  <result value>
3.01

$$$$
>  <binder>
ADI-41491 (antibody, V domains shown) VH: EVQLLESGGGLVQPGGSLRLSCAASGFTFSSYSMNWVRQAPGKGLEWVSYMSSDRSAIYYSDSVKDRFTISRDNAKNSLYLQMHSLRAEDTAVYYCARRYCSSTSCYRGLGYYYGMDVWGQGTTVTVSS VL: SYELTQPPSVSVAPGQTARITCGGSNIGNKDVHWYQQKPGQAPVLVVYDDSDRPSGIPERFAGSNSGNTATLTISRVEAGDEADYYCQVWHSAGDHVVFGGGTKLTVL

>  <result value>
0.439

$$$$
>  <binder>
ADI-41529 (antibody, V domains shown) VH: EVQLVQSGAEVRRPGSSVKVSCKASGGTLDTDSISWVRQVPGQGLVWVGGVIPILGSVVYARKFQGRVTITADGSTSTAYMELRSLRSEDTAMYYCASQFYDFRRGYFDAFDIWGQGTTVTVSS VL: ETTLTQSPGILSLSPGERATLSCRATQTVISNYINWYQQKPGQAPRLLIYGASSRATGIPDRFSGSGSGTDFTLTISRLEPEDFAVYYCQRYDSSPPGFTFGPGTKVDIK

>  <result value>
1.03

$$$$
